assay: yeast AGP1-GFP level changes, GLN3 branch – cell-based, multiplex flow cytometry, S. cerevisiae, primary screen (AID 1887); conditions: 3 h, at 10 µM, stronger effect = higher value;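 also: AGP1-GFP fusion strain of S. cerevisiae within a five-strain barcoded multiplex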
Records with an inconclusive call do not appear.
For each entry below, report its GFP response, % of DMSO value.
Answers are plain numbers, in %.

Solved entries (count: 2):
Cc1ccccc1C(=O)Oc1ccc(Sc2ccc(O)cc2)cc1 :: 100
CC(=O)NC1C(OCc2ccccc2)OC(COC(C)=O)C(OC(C)=O)C1OC(C)=O (configuration not stated) :: 96

Please supply GFP response, % of DMSO for each of the following items, keeping them in order.
1. COc1cc(C(=S)N(C)C)ccc1O
2. COc1ccc(-c2nc(NC(C)=O)sc2-c2ccc(OC)cc2)cc1
3. C[C@@H]1CCC[C@H](C)N1NC(=O)c1ccc(Cl)c(S(N)(=O)=O)c1
4. N#C/C(=C/c1ccccc1)C(=O)NCc1ccccc1
5. CN(C)c1ccc(Nc2c3c4c(cccc4n(C)c2=O)C(=O)c2ccccc2-3)cc1

result:
[116, 90.9, 113, 102, 108]

Please supply GFP response, % of DMSO for each of the following items, keeping them in order.
1. Cc1ccccc1C(=O)NCC(=O)O
2. COC(=O)C1=C(C)NC(C)=C(C(=O)OCCN(C)Cc2ccccc2)C1c1cccc([N+](=O)[O-])c1 (configuration not stated)
3. Cc1ccc([N+](=O)[O-])cc1NC1OC(CO)C(O)C1O (configuration not stated)
4. CC[C@H]1CN2CCc3cc(OC)c(OC)cc3[C@@H]2C[C@@H]1C[C@H]1NCCc2cc(OC)c(OC)cc21
5. Cc1ccc2ncnc(NCCCCCC(=O)O)c2c1

result:
[105, 110, 109, 99.9, 108]

Please supply GFP response, % of DMSO for each of the following items, keeping them in order.
1. CCOc1ccc(OCCSc2nc3ccccc3[nH]2)cc1
2. CC(=O)[C@@]1(O)CC[C@H]2[C@@H]3C[C@H](C)C4=CC(=O)C=C[C@]4(C)[C@@]3(F)[C@@H](O)C[C@@]21C
3. OC(C#CCN1CCCC1)(c1ccccc1)c1cccnc1 (configuration not stated)
4. CCOc1cc2c(cc1OCC)C(c1ccccc1)N(c1ccc(C(=O)O)cc1)C(=O)C2 (configuration not stated)
5. CC1(C)C(C=C(Cl)Cl)C1C(=O)N1CCN(Cc2ccccc2)CC1 (configuration not stated)

result:
1: 83.3; 2: 95.2; 3: 107; 4: 107; 5: 103

Values from PubChem BioAssay
